Subject of test: Human IP6K1 (Homo sapiens, UniProt Q92551)
Construct: GST (N, cleaved yes); made in house; host or cells: C43 E. coli, pGEX-6P-2
Sequence (Q92551 whole entry): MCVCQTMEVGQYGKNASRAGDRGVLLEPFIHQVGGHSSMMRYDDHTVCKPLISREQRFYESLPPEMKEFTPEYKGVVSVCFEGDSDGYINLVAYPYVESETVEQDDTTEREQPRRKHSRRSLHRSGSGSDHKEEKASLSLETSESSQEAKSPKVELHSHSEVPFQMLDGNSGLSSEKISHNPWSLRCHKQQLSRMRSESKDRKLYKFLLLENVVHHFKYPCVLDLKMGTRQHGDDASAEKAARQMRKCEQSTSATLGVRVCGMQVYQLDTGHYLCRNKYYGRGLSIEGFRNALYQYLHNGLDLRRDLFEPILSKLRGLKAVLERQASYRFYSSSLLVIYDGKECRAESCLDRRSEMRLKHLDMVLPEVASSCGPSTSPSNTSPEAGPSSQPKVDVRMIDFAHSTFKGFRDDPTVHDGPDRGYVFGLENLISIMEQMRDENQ
Experiment: IP6K1 high-throughput screen of the Sigma LOPAC (ADP-Glo Max, single point);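 note: final compound concentration 10µM in 5% DMSO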
Type: biochemical
Assay conditions: LOPAC single-point screen, ADP-Glo Max luminescence raw signal per well
Where a name gives a salt, the structure may show the parent alone.
Assay readout: Raw Signal

[
  {
    "Compound": "CC(=O)Oc1ccccc1C(=O)O",
    "Subject of test": "Human IP6K1 (Homo sapiens, UniProt Q92551)",
    "Raw Signal": 52950
  },
  {
    "Compound": "N.N.[Cl][Pt][Cl] [Cisplatin]",
    "Subject of test": "Human IP6K1 (Homo sapiens, UniProt Q92551)",
    "Raw Signal": 49642
  },
  {
    "Compound": "O=[N+]([O-])c1cccc2c(Br)n[nH]c12",
    "Subject of test": "Human IP6K1 (Homo sapiens, UniProt Q92551)",
    "Raw Signal": 68484
  },
  {
    "Compound": "CN(C)[C@@H]1C(O)=C(C(N)=O)C(=O)[C@@]2(O)C(O)=C3C(=O)c4c(O)ccc(Cl)c4[C@@H](O)[C@H]3C[C@@H]12 [Demeclocycline hydrochloride]",
    "Subject of test": "Human IP6K1 (Homo sapiens, UniProt Q92551)",
    "Raw Signal": 42734
  },
  {
    "Compound": "O=C(O)CCC/C=C\\C[C@@H]1[C@@H](/C=C/[C@H](O)C2Cc3ccccc3C2)[C@@H](F)C[C@@H]1O",
    "Subject of test": "Human IP6K1 (Homo sapiens, UniProt Q92551)",
    "Raw Signal": 53863
  }
]

Reported Raw Signal, compound Cc1ccc(S(=O)(=O)NC(=O)NN2CCCCCC2)cc1 [Tolazamide] : ____ 64192

Data request, read-out Raw Signal, for CC(=O)NCCc1c[nH]c2ccc(O)cc12 [N-Acetyl-5-hydroxytryptamine] 55051

Which Raw Signal reading was recorded for the compound COC(=O)C1=C(C)NC(C)=C(C(=O)OCCN(C)Cc2ccccc2)C1c1cccc([N+](=O)[O-])c1 (centres unmarked) [Nicardipine hydrochloride] ? 66364
